# system: HCV RdRp (NS5B RNA-dependent RNA polymerase) (Hepatitis C virus genotype 1b)
# Construct: The HCV NS5B protein is the viral RdRp; made in house; host or cells: insect cells infected with recombinant baculovirus
# Sequence (P26663 2420-3010): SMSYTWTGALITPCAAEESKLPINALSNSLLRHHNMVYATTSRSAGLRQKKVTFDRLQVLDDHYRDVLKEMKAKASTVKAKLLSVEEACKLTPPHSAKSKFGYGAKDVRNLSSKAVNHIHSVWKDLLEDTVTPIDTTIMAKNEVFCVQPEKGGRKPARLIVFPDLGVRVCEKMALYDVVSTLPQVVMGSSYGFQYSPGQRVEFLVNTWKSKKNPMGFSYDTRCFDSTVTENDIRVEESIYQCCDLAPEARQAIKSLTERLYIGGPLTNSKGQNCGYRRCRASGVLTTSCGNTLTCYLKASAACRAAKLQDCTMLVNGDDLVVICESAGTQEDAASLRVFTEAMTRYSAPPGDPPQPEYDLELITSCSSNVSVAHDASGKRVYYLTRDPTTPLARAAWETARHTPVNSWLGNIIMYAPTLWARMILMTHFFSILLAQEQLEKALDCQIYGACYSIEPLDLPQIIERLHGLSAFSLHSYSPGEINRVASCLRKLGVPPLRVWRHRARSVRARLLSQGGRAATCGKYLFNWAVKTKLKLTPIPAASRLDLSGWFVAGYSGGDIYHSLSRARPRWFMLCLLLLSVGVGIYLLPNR
# test.summary: Inhibition of hepatitis C virus RdRp (poly(A)/oligo(U), [3H]UTP incorporation)
# Assay type: biochemical
# setup.conditions: Tables IXa-IXc; unit inferred; read-out: HCV (IC50)
pIC50: −log10 of the molar value.
Everything with pIC50 lower than 5 is class 0; everything else, including exactly 5, is class 1.

INSERT INTO results (compound, assigned_class) VALUES
  ('O=C(O)C(O)=CC(=O)c1ccccc1 [Example 1]', 'class 1'),
  ('O=C(O)C(O)=CC(=O)c1cccc(NS(=O)(=O)c2c(Cl)cccc2Cl)c1 [Example 120]', 'class 1'),
  ('O=C(O)C(O)=CC(=O)c1ccc(Cc2cccc(F)c2)s1 [Example 205]', 'class 0'),
  ('O=C(O)CCCOc1ccccc1C(=O)C=C(O)C(=O)O [Example 27]', 'class 1'),
  ('N#Cc1cccc(Cl)c1COc1cc(O)cc(C(=O)C=C(O)C(=O)O)c1 [Example 160]', 'class 1');

Q: Hello, I need to know if O=C(O)C(O)=CC(=O)c1ccc(Cc2ccccc2)s1 [Example 202] has measured pIC50 not below 5. Thanks!
Result: class 0

Q: Hello, I need to know if N#Cc1ccccc1OCc1cccc(C(=O)C=C(O)C(=O)O)c1 [Example 112] has measured pIC50 not below 5. Thanks!
Result: class 1

Q: Hello, I need to know if Cc1ccc(C(=O)C=C(O)C(=O)O)c(C)c1 [Example 165] has measured pIC50 not below 5. Thanks!
Result: class 1

Q: Hello, I need to know if O=C(O)C(O)=CC(=O)c1cccc(NS(=O)(=O)c2cccc3ccccc23)c1 [Example 78] has measured pIC50 not below 5. Thanks!
Result: class 1

Q: Hello, I need to know if N#Cc1ccc(Br)cc1COc1cccc(C(=O)C=C(O)C(=O)O)c1 [Example 113] has measured pIC50 not below 5. Thanks!
Result: class 1

###

IC50 listing for selected molecules.
# system: HCV RdRp (NS5B RNA-dependent RNA polymerase) (Hepatitis C virus genotype 1b)
# Construct: The HCV NS5B protein is the viral RdRp; made in house; host or cells: insect cells infected with recombinant baculovirus
# test.summary: Inhibition of hepatitis C virus RdRp (poly(A)/oligo(U), [3H]UTP incorporation)
# Type: biochemical
# setup.conditions: Tables I-VIII; 20 nM NS5B, 1 hour at 22° C.; read-out: IC 50 (μM), HCV-polymerase
# value in µM; strip the unit string

INSERT INTO assay_data (molecule, test_result) VALUES
  ('CCc1ccc(C(=O)C=C(O)C(=O)O)cc1', 47),
  ('COc1cccc(COc2cccc(C(=O)C=C(O)C(=O)O)c2)c1', 1),
  ('N#CCCCOc1ccc(N)cc1C(=O)C=C(O)C(=O)O', 1.7),
  ('Cc1cc(C)c(S(=O)(=O)Nc2cccc(C(=O)C=C(O)C(=O)O)c2)c(C)c1', 15),
  ('O=C(O)C(O)=CC(=O)c1ccc(Cl)cc1', 20),
  ('O=C(O)C(O)=CC(=O)c1cccc(NS(=O)(=O)c2c(Cl)cc(Cl)cc2Cl)c1', 0.26),
  ('N#CCCCOc1ccc(OCCCC#N)c(C(=O)C=C(O)C(=O)O)c1', 6.1),
  ('O=C(O)C(O)=CC(=O)c1cccc(OCc2cc(-c3ccccc3)on2)c1', 6);

Q: Which IC50 value belongs to "COc1ccc(Cl)cc1S(=O)(=O)Nc1cccc(C(=O)C=C(O)C(=O)O)c1" ?
Result: 1.6

Q: Which IC50 value belongs to "Cc1cc(Cl)cc(Cl)c1S(=O)(=O)Nc1cccc(C(=O)C=C(O)C(=O)O)c1" ?
Result: 2.3

Q: Which IC50 value belongs to "O=C(O)C(O)=CC(=O)c1ccsc1Cc1cccs1" ?
Result: 15

Q: Which IC50 value belongs to "O=C(O)C(O)=CC(=O)c1cccc(Cn2nnc3ccccc32)c1" ?
Result: 30
